Recorded activation, one value per entry.
Assayed target: E-selectin (Homo sapiens) (UniProt P16581)
Sequence (P16581 whole entry, looked up): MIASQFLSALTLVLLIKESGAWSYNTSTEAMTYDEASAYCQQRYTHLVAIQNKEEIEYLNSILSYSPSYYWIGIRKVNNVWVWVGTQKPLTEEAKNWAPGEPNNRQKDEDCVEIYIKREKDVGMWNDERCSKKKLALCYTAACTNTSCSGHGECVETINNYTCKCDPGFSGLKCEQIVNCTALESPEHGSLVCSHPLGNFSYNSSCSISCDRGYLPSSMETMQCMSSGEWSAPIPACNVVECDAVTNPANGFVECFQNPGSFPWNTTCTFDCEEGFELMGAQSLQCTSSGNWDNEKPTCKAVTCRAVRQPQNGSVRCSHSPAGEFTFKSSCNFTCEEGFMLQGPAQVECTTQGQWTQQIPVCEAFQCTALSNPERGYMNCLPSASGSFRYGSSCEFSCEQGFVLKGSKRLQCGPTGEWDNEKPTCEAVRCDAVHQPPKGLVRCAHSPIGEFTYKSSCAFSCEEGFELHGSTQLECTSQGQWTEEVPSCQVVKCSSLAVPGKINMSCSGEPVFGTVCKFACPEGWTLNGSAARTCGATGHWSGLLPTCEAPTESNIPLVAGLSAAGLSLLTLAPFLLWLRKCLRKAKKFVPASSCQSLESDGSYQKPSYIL
Assay procedure: inducers of endothelial E-selectin expression – imaging, HUVEC, immunofluorescence imaging, single point, primary screen (AID 686992);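 further: measured in HUVEC primary endothelial cells; signal is the percent of cells scored E-selectin positive by PE staining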
Experimental setup: at 7.58 µM, active compounds read high, normalized: neutral wells 0, TNF-alpha wells 100
In all, about 260,000 compounds went through this assay and about 960 (0.37%) were called active. The sample holds actives, similar compounds and a random draw of the others, so the mix is not that of the screen.
Numeric only. Scale: %

// lookup activation for CC(C)C(c1nnnn1C1CCCCC1)N1CCN(C(=O)c2ccco2)CC1 (stereo not given) 39.5

Now this one: `Cc1cc2nc(-c3ccc(F)cc3)c(Cc3ccsc3)n2c(C)c1Br` 0.0835

Now this one: CSc1ccc(CN2CCC2(C)C(=O)NCc2ccccc2Br)cc1 (stereo not given) -0.129

Now this one: `CO[C@H]1CN(C)C(=O)c2cc(NC(=O)c3cc(C)on3)ccc2OC[C@@H](C)N(C(C)=O)C[C@H]1C` -0.127

Now this one: `CCCc1ccc(OCCNC(=O)c2ccccc2Br)cc1` 0.473

Entry source: PubChem BioAssay AID686992
